Reported PBM binding z-score by item:
- System: FXR:RXRa (NR concentration 270 nM, RXRa partner concentration 90 nM)
- method.notes: PBM binding z-score (relative to random genomic background probes); higher = stronger binding; sequences stand for … in GC…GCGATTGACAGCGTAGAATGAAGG
Give the value as a plain number.

> print(dat)
                     ordered.residues        property.name  observed.measurement
1  CCGACTGGGGCAGAGGTTACCATACTCAGTACGA  PBM binding z-score                 0.287
2  TCTAGTTGGTCAAGGGTCACACACTCGAAATGCG  PBM binding z-score                  4.17

Consider the sequence ATATGTTGGTTAAGGGTCATTCAGGTTGGTTCGC and give its measured PBM binding z-score.
4.33

What measured PBM binding z-score goes with CCGACTGGCGCAAGGTTACCATAACGCACAGCCA ?
0.175

# query: PBM binding z-score of entry AACTCTAGGTAAGACTCAGTTCAGTGAAGAACGC
-0.314

Consider the sequence CATGCTAGGTCAATGGTCAGCTAAAGCAGCTCGC and give its measured PBM binding z-score.
3.18
